pIC50: −log10 of the molar value.
Ok so here's the combined literature set: pIC50 for PIK3CB (Human) (UniProt P42338).
measuredQuantity: pIC50

>>> reading("O=C(c1cnc2ccc(-c3ccc4oc(Nc5ccccc5)nc4c3)cn12)N1CCOCC1")
"> 5.00"
>>> reading("C[C@H](NC(=O)c1cncc2cccnc12)c1cc2cccc(Cl)c2c(=O)n1-c1ccccc1")
"5.00 to 6.00"
>>> reading("Cc1ncc(-c2ccc3ncc(C(=O)N4CCOCC4)n3c2)c2cn[nH]c12")
"< 5.00"
>>> reading("C[C@H](NC(=O)c1c(N)nn2cccnc12)c1cc2cccc(C#CCNS(C)(=O)=O)c2c(=O)n1-c1ccccc1")
"5.00 to 6.00"
>>> reading("Cc1nc2c(-c3nnc[nH]3)cc(-c3ccnc(N)c3F)cc2n1-c1ccnc2c(Cl)ccc(Cl)c12 (single isomer, unassigned)")
7.06
>>> reading("Nc1nc2cc(-c3ccc4ncc(C(=O)N5CC(F)C5)n4c3)ccc2o1")
"> 5.00"
>>> reading("CC(C)N1CCN(C2CN(c3cnc4ccc(-c5ccc6oc(N)nc6c5)nc4n3)C2)CC1")
"< 5.00"
>>> reading("Cc1cccc2cc([C@H](C)Nc3ncnc4cccnc34)nc(C(=O)N3CCOCC3)c12")
"> 5.00"
>>> reading("NC(=O)c1cc(-c2ccncc2)cc2c1ncn2-c1ccnc2c(Cl)cccc12")
7.07
>>> reading("Cc1cccc2cc([C@H](C)Nc3ncnc4[nH]cc(C(N)=O)c34)n(C3CC3)c(=O)c12")
"> 7.00"
>>> reading("CC(=O)Nc1ccc(Oc2nc(-c3cccc(O)c3)nc3c2cnn3C)cc1")
6.67
>>> reading("CS(=O)(=O)CCN1CCC(Nc2cnc3ccc(-c4ccc5oc(N)nc5c4)cc3n2)CC1")
"> 5.00"
>>> reading("Nc1cc(-c2cc(-c3nnc[nH]3)c3nc(C4CC4)n(-c4ccnc5c(F)ccc(F)c45)c3c2)ccn1")
7.33
>>> reading("C[C@H](NC(=O)c1c(N)nn2cccnc12)c1c(Br)c2cccc(F)c2c(=O)n1-c1ccccc1")
"5.00 to 6.00"
>>> reading("Nc1nc2cc(-c3ccc4nc(N)c(N5CC(N6CCOCC6)C5)nc4c3)ccc2o1")
"< 5.00"
>>> reading("Nc1nc2cc(-c3ccc4ncc(N5CC(N)C5)nc4c3)ccc2o1")
"> 6.00"
>>> reading("Nc1nc2cc(-c3ccc4ncc(N5CCOCC5)n4c3)ccc2o1")
"< 5.00"

---

Ok so here's the combined literature set: IC50 for UniProt:P42338.
measuredQuantity: IC50

>>> reading("CC(C)(N)C(=O)N1CCN(c2cnc3ccc(-c4ccc5oc(N)nc5c4)nc3n2)CC1")
"< 10000 nM"
>>> reading("CCCc1nc2c(-c3nnc[nH]3)cc(-c3ccnc(N)c3)cc2n1-c1ccnc2c(Cl)ccc(F)c12")
"7 nM"
>>> reading("C[C@H](Nc1ncnc2[nH]cnc12)c1cc2cccc(Cl)c2c(OCC(=O)N2CCCC2)n1")
"> 10000 nM"
>>> reading("COc1cc(-c2cccc3cc([C@H](C)Nc4ncnc5scnc45)n(-c4ccccc4)c(=O)c23)ccn1")
"1000 to 10000 nM"
>>> reading("COc1ncc(-c2ccc3ncc(OCCN(C)C)c(=O)n3c2)cc1NS(=O)(=O)c1ccc(F)cc1Cl")
"9.9 nM"
>>> reading("Fc1nccc(-c2cc(-c3nnc[nH]3)c3ncn(-c4ccnc5c(F)ccc(F)c45)c3c2)c1F")
"46 nM"
>>> reading("Nc1nc2cc(-c3ccc4ncc(C(=O)N5CCOCC5)n4c3)c(Cl)cc2o1")
"> 10000 nM"
>>> reading("CCN(CC)CCCNC(=O)c1cnc2ccc(-c3ccc4oc(N)nc4c3)cn12")
"< 10000 nM"
>>> reading("CCC(Cn1cnc2ccc(-c3cnc(OC)c(NS(=O)(=O)c4ccc(F)cc4Cl)c3)cc2c1=O)C(=O)NC (single isomer, unassigned)")
"1850 nM"
>>> reading("COc1cc(-c2nn(Cc3cc4cccc(C)c4c(=O)n3-c3ccccc3C)c3ncnc(N)c23)ccc1Cl")
"> 10000 nM"
>>> reading("Cc1ccccc1-n1c(Cn2nc(-c3cc(O)cc(F)c3)c3c(N)ncnc32)cc2cccc(F)c2c1=O")
"< 10000 nM"
>>> reading("C[C@H](Nc1nc(N)ncc1C#N)c1cc2cccc(C#CCCC(=O)N3CCCC3)c2c(=O)n1-c1ccccc1")
"1000 to 10000 nM"
>>> reading("C[C@H](NC(=O)c1nc(-c2ccc(NS(C)(=O)=O)cc2)cnc1N)c1cc2cccc(Cl)c2c(=O)n1-c1ccccc1")
"> 10000 nM"
>>> reading("Cc1nc2c(-c3nnc[nH]3)cc(-c3ccnc(F)c3)cc2n1-c1ccnc2c(F)ccc(F)c12 (single isomer, unassigned)")
"400 nM"
>>> reading("Nc1nc2cc(-c3ccc4ncc(C(=O)N5CCC6(C5)OCCO6)n4c3)ccc2o1")
"> 10000 nM"
>>> reading("Nc1nc2cc(-c3ccc4ncc(N5CCC(O)CC5)cc4n3)ccc2o1")
"< 10000 nM"
